Assay: PET hydrolysis product formed (TPA+MHET+BHET, UV-Vis) per mg enzyme (mmol/mg enzyme); higher = more PET depolymerisation activity; extreme values may be limits of the assay
Settings: PET substrate: aFilm; 70 °C; pH 9.5; 24 h
quantityName: PET hydrolysis product formed

So what does the record say about PET hydrolysis product formed for ADNPYQRGPDPTNASIEAATGPFAVGTQPIVGASGFGGGQIYYPTDTSQTYGAVVIVPGFISVWAQLAWLGPRLASQGFVVIGIETSTITDLPDPRGDQALAALDWATTRSPVRSRIDRTRLAAAGWSMGGGGLRRAACQRPSLKAIVGMAPWNTEKNWSCVTVPTLFFGGSSDAVASPNDHAKPFYNSITRAEKDYIELCNADHFFPTSANTTMAKYFISWLKRWVDNDTRYTQFLCPGPSTGLFAPVCASMNTCPF [CaPETaseM9] ?
0

---

Test: PET hydrolysis product formed (TPA+MHET+BHET, UV-Vis) per mg enzyme (mmol/mg enzyme); higher = more PET depolymerisation activity; extreme values may be limits of the assay
Conditions: PET substrate: cryPow; 70 °C; pH 5.5; 2 h
quantityName: PET hydrolysis product formed
I only need the number, thanks.

Give the measured PET hydrolysis product formed of QTNPYARGPNPTAASLEASAGPFTVRSFTVARPVGYGAGTVYYPTNAGGTVGAIAIVPGYTATQSSINWWGPRLASHGFVVITIDTNSTLDKPESRSSQQMAALRQVASLNGTSSSPIYGKVDTARGGVMGWSMGGGGSLISAANNPSLKAAAVMAPWHSSTNFSSVTVPTLIFACENDRIAPVKEYALPIYDSMSLNAKQFLEICGGSHSCACSGNSNQALIGMKGVAWMKRFMDNDTRYSQFACENPNSTAVCDFRTANCS [HotPETase] .
0.0547

Looking for the measured PET hydrolysis product formed of SNPYQRGPNPTRSALTADGPFSVATYTVSRLSVSGFGGGVIYYPTGTSLTFGGIAMSPGYTADASSLAWLGRRLASHGFVVLVINTNSRFDGPDSRASQLSAALNYLRTSDPSAVRARLDANRLAVAGHSMGGGATLRIAEQNPSLKAAIPLTPWHTQKTFNTSVPVLIVGAEADTVAPVSQHAIPFYQNLPSTTPKVYVELCNASHIAPNSNNAAISVYTISWMKLWVDNDTRYRQFLCNVNDPALCDFRTNNRHCQ [LCC-ICCG DAQI] , can you help?
0.0166

Find the recorded PET hydrolysis product formed belonging to SNPYQRGPNPTRSALTADGPFSVATYTVSRLSVSGFGGGVIYYPTGTSLTFGGIAMSPGYTADASSLAWLGRRLASHGFVVLVINTNSRFDGPDSRASQLSAALNYLRTSSPSAVRARLDANRLAVAGHSMGGGGTLRIAEQNPSLKAAVPLTPWHTDKTFNTSVPVLIVGAEADTVAPVSQHAIPFYQNLPSTTPKVYVELCNASHIAPNSNNAAISVYTISWMKLWVDNDTRYRQFLCNVNDPALCDFRTNNRHCQ [LCC-ICCG] and report it.
0.0205

Given the entry SNPYQRGPNPTRSALTATGPFSVATYTVSRLLVSGFGGGVIYYPTGTSLTFGGIAMSPGYTADASSLAWLGRRLASHGFVVLVINTNSRFDGPDSRARQLSAALNYLRTSSPSAVRARLDANRLAVAGHSMGGGGTLRIAEQNPSLKAAVPLTPWHPDKTFNTSVPVLIVGAQADTVAPVSQHAIPFYQNLPSTTPKVYVELCNASHIAPNSPNAAISVYTISWMKLWVDNDTRYRQFLCNVNDPALCDFRTNNRHCQ [LCC-ICCG I6M] , report its measured PET hydrolysis product formed.
0.0164

Can you look up the measured PET hydrolysis product formed of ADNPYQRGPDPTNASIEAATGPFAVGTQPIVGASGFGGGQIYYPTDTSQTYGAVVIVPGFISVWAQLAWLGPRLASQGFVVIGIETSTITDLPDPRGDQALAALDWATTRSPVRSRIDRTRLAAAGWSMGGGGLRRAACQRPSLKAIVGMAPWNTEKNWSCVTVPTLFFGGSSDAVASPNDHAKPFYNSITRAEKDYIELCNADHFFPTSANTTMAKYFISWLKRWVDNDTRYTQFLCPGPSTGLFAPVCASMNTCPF [CaPETaseM9] for me?
0.00828

Sample ANPYERGPNPTDALLEARSGPFSVSEENVSRLSASGFGGGTIYYPRENNTYGAVAISPGYTGTEASIAWLGERIASHGFVVITIDTITTLDQPDSRAEQLNAALNHMINRASSTVRSRIDSSRLAVMGHSMGGGGSLRLASQRPDLKAAIPLTPWHLNKNWSSVTVPTLIIGADLDTIAPVATHAKPFYNSLPSSISKAYLELDGATHFAPNIPNKIIGKYSVAWLKRFVDNDTRYTQFLCPGPRDGLFGEVEEYRSTCPF [TfCut2] — what was its PET hydrolysis product formed?
0

Give the measured PET hydrolysis product formed of QDNPYERGPDPTEDSIEAIRGPFSVATERVSSFASGFGGGTIYYPRETDEGTFGAVAVAPGFTASQGSMSWYGERVASHGFIVFTIDTNTRLDAPGQRGRQLLAALDYLVERSDRKVRERLDPNRLAVMGHSMGGGGSLEATVMRPSLKASIPLTPWHLDKTWGQVQVPTFIIGAELDTIAPVSTHAKPFYESLPSSLPKAYMELCGATHFAPNIPNTTIAKYVISWLKRFVDEDTRYSQFLCPNPTDRAICEYRSTCPY [Cut190*SS] .
0

Param item = QTNPYARGPNPTAASLEASAGPFTVRSFTVSRPSGYGAGTVYYPTNAGGTVGAIAIVPGYTARQSSIKWWGPRLASHGFVVITIDTNSTFDYPSSRSSQQMAALRQVASLNGDSSSPIYGKVDTARMGVMGHSMGGGASLRSAANNPSLKAAIPQAPWDSQTNFSSVTVPTLIFACENDSIAPVNSHALPIYDSMSRNAKQFLEINGGSHSCANSGNSNQALIGKKGVAWMKRFMDNDTRYSTFACENPNSTAVSDFRTANCS [DuraPETase] ; retrieve measured PET hydrolysis product formed.
0

For SNPYQRGPNPTRSALTADGPFSVRTYTISRLSVSGFGGGVIYYPTGTSLTFGGIAMSPGYTADASSLAWLGRRLASHGFVVLVINTNSRFDGPDSRASQLSAALNYLRTSSPSAVRARLDANRLAVAGHSMGGGGTLRIAEQNPSLKAAVPLTPWHTDKTFNTSVPVLIVGAEADTVAPVSQHAIPFYQNLPSTTPKVYVELCNASHIAPNSPNAAISVYTISWMKLWVDNDTRYRQFLCNVNDPALCDFRTNNRHCQ [LCC-ICCG RIP] , what is its reported PET hydrolysis product formed?
0.0166

Using the record for SNPYQRGPNPTRSALTADGPFSVATYTVSRLSVSGFGGGVIYYPTGTSLTFGGIAMSPGYTADASSLAWLGRRLASHGFVVLVINTNSRFDGPDSRASQLSAALNYLRTSSPSAVRARLDANRLAVAGHSMGGGGTLRIAEQNPSLKAAVPLTPWHTDKTFNTSVPVLIVGAEADTVAPVSQYAIPFYQNLPSTTPKVYVELCNASHIAPNSDNAAISVYTISWMKLWVDNDTRYRQFLCNVNDPALCDFRTNNRHCQ [LCC-A2] , report its PET hydrolysis product formed.
0.0282

Please look up its PET hydrolysis product formed: QTNPYARGPDPTAASLEASAGPFTVRSFTVSRPSGYGAGTVYYPTNAGGTVGAIAIVPGYTARQSSIKWWGPRLASHGFVVITIDTNSTLDQPESRSSQQMAALEQVASLNGTSSSPIYGKVDTARMGVMGWSMGGGGSLISACNNPSLKAAVVQAPWHSSTNFSCVTVPTLIFACENDSIAPVNSSALPIYDSMSENAKQFLEICGGSHSCANTGNSDQALIGKKGVAWMKRFMDNDTRYSTFACENPNSTRVCDFRTANCS [Z1-PETase]
0
